B1: NELF-E aptamer (parent)
chain: CCCAACGACUGCCGAGCGAGAUUACGCUUGAGCGCCCCACUGAGGAUGCCCACGGGCGAUUGGGGCACGG

- Variants of: B1
- Assay Procedure: HiTS-RAP
- Conditions Used: with NELF-E (Drosophila)
Readout Type: pKd
Quick note: pKd means taking -log10 of the concentration in moles per liter.

// known answers, use as guide
Mutant | pKd
A5G A19U | 8.14
G16U G54A | 7.79
G14U A15G | 8.22

(Q) Look up pKd: C12G U23G
(A) 8.23

(Q) Any idea what its pKd is? The variant is G7U G55A
(A) 8.12

(Q) Given C6U C25G , state its recorded pKd.
(A) 8.10

(Q) I'd like to know its pKd. The variant in question is U41G C50U
(A) 7.86
